Origin of the recorded values: patent US20120283208A1

System: P. aeruginosa ATCC 27853
Test: MIC broth microdilution, APAE001
Format: cell-based
Conditions: Pseudomonas aeruginosa; APAE001 is ATCC27853; Mueller Hinton Broth, 35 C, 20 hours
Recorded MIC values for a group of molecules are listed next.

**Q:** Dear colleague, please send me the reported MIC for NC[C@@H](F)[C@H](O)C(=O)N[C@@H]1C[C@H](N)[C@@H](O[C@H]2O[C@H](CNCCO)[C@@H](O)C[C@H]2N)[C@H](O[C@@H]2O[C@H](CO)[C@@H](O[C@H]3O[C@@H](CN)[C@@H](O)[C@H](O)[C@H]3N)[C@H]2O)[C@H]1O [5/3] when you can.
**A:** ≤ 1 µg/mL

**Q:** Dear colleague, please send me the reported MIC for NC[C@@H]1O[C@H](O[C@H]2[C@@H](O)[C@H](O[C@@H]3[C@@H](O)[C@H](NC(=O)[C@]4(O)C[C@H](N)C4)C[C@H](N)[C@H]3O[C@H]3O[C@H](CNCCO)[C@@H](O)C[C@H]3N)O[C@@H]2CO)[C@H](N)[C@@H](O)[C@@H]1O [2/9] when you can.
**A:** ≤ 1 µg/mL

**Q:** Dear colleague, please send me the reported MIC for NC[C@@H]1O[C@H](O[C@H]2[C@@H](O)[C@H](O[C@@H]3[C@@H](O)[C@H](NC(=O)[C@@H](O)C(F)(F)CN)C[C@H](N)[C@H]3O[C@H]3O[C@H](CNCCO)[C@@H](O)C[C@H]3N)O[C@@H]2CO)[C@H](N)[C@@H](O)[C@@H]1O [6/3] when you can.
**A:** 1 to 16 µg/mL

**Q:** Dear colleague, please send me the reported MIC for NC[C@@H]1O[C@H](O[C@H]2[C@@H](O)[C@H](O[C@@H]3[C@@H](O)[C@H](NC(=O)[C@@H](O)[C@@H](O)CN)C[C@H](N)[C@H]3O[C@H]3O[C@H](CNCCO)[C@@H](O)C[C@H]3N)O[C@@H]2CO)[C@H](N)[C@@H](O)[C@@H]1O [4/3] when you can.
**A:** ≤ 1 µg/mL
